The reported numbers originate from patent US20250320312A1.

# target_system: BSA (UniProt P02769)
# Sequence (P02769 25-607 limits assumed): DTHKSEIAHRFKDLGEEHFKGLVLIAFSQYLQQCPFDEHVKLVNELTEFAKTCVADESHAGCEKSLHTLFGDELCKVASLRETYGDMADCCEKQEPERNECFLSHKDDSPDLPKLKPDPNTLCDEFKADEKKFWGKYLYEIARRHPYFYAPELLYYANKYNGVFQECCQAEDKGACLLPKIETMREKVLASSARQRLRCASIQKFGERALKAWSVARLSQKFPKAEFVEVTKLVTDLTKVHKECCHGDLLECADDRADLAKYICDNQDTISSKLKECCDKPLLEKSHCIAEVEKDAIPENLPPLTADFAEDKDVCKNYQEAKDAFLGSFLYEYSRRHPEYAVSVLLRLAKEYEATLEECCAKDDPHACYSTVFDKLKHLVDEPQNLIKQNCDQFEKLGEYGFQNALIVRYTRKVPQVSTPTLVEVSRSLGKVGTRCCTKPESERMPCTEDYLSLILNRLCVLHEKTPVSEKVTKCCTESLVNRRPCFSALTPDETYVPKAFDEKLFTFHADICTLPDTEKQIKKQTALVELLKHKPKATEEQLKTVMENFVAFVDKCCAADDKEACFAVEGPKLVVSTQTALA
# test_summary: scFv ELISA
recorded_endpoint: OD450

PcOxP_DB01_H06 (scFv, V domains shown, scFv in periplasmic extract) VH: EVQLLESGGGLVQPGGSLRLSCAASGFTFSDFYMEWVRQAPGKGLEWVAASRNKGNSYTTAYADSVKGRFTISRDNSKNTLYLQMNSLRAEDTAVYYCARDYYGSSYWYFDVWGQGTLVTVSS VL: DIVMTQSPDSLAVSLGERATINCTASESLYSSKHKVHYLAWYQQKPGQPPKLLIYGASNRYDGVPDRFSGSGSGTDFTLTISSLQAEDVAVYYCANFYSYPLTFGGGTKVEIK :: 0.11 OD450

In: Look up OD450 for this binder: PcOxP_DB01_F12 (scFv, V domains shown, scFv in periplasmic extract) VH: EVQLLESGGGLVQPGGSLRLSCAASGFTHSDFYMEWVRQAPGKGLEWVAASRNKANGYTTEYADSVKGRFTISRDNSKNTLYLQMNSLRAEDTAVYYCARDYYGSSYWYFDSWGQGTLVTVSS VL: DIVMTQSPDSLAVSLGERATINCTASESLYSSKHKVHYLAWYQQKPGQPPKLLIYGASNRYVGVPDRFSGSGSGTDFTLTISSLQAEDVAVYYCAQFYSYPLTFGGGTKVEIK
Out: 0.06 OD450
